Every entry's value here was drawn from patent US10941157B2.

system: Rhizoctonia solani (Rs); assay: In vitro pathogen growth inhibition assay, Rs (mycelial plugs); type: cell-based; settings: Rhizoctonia solani, 48 h, ≥90% growth inhibition; mycelial plugs; 48 hours; vs 2% DMSO control; read-out: Compound Concentration (ppm) sufficient for ≥90% inhibition of Rs
Below, each of the compounds is paired with its reported IC90 value.

{"SMILES": "CCOC(=O)c1sc2c(c1C)c(=O)n(C(C)(C)C(=O)N1CCCC1)c(=O)n2C[C@H](OCCC#N)c1cc(F)ccc1OC", "MEASUREMENT_TARGET": "Rhizoctonia solani (Rs)", "RESULT_UNIT": "µg/mL", "IC90": 0.4}
{"SMILES": "CCOC(=O)c1sc2c(c1C)c(=O)n([C@H](C)C(=O)N(C)C(C)C)c(=O)n2C[C@H](OCCC#N)c1cc(F)ccc1OC", "MEASUREMENT_TARGET": "Rhizoctonia solani (Rs)", "RESULT_UNIT": "µg/mL", "IC90": 2}
{"SMILES": "CCNC(=O)[C@@H](C)n1c(=O)c2c(C)c(-n3cccn3)sc2n(C[C@H](OCCC#N)c2cc(F)ccc2OC)c1=O", "MEASUREMENT_TARGET": "Rhizoctonia solani (Rs)", "RESULT_UNIT": "µg/mL", "IC90": 2}
{"SMILES": "Cc1c(-n2nccn2)sc2c1c(=O)n(C(C)(C)C(=O)NC(C)C)c(=O)n2C[C@H](OC(C)C)c1cc(F)ccc1CCC#N", "MEASUREMENT_TARGET": "Rhizoctonia solani (Rs)", "RESULT_UNIT": "µg/mL", "IC90": 0.08}
{"SMILES": "Cc1c(-n2nccn2)sc2c1c(=O)n(C(C)(C)C(=O)NC1CCC1)c(=O)n2C[C@H](OC(C)C)c1cc(F)ccc1OCC#N", "MEASUREMENT_TARGET": "Rhizoctonia solani (Rs)", "RESULT_UNIT": "µg/mL", "IC90": 0.4}
{"SMILES": "CCc1ccc(F)cc1[C@H](Cn1c(=O)n(C(C)(C)C(=O)NC(C)C)c(=O)c2c(C)c(-n3nccn3)sc21)OCCOC", "MEASUREMENT_TARGET": "Rhizoctonia solani (Rs)", "RESULT_UNIT": "µg/mL", "IC90": 2}
{"SMILES": "COc1ccccc1[C@@H](O)Cn1c(=O)n(C(C)(C)C(=O)NC(C)C)c(=O)c2c(C)c(-n3nccn3)sc21", "MEASUREMENT_TARGET": "Rhizoctonia solani (Rs)", "RESULT_UNIT": "µg/mL", "IC90": 0.08}
{"SMILES": "COc1ccc(F)cc1[C@H](Cn1c(=O)n(C(C)(C)C(=O)N2CCCC2)c(=O)c2c(C)c(-n3nccn3)sc21)OCCC#N", "MEASUREMENT_TARGET": "Rhizoctonia solani (Rs)", "RESULT_UNIT": "µg/mL", "IC90": 2}
{"SMILES": "CCOC(=O)c1sc2c(c1C)c(=O)n([C@@H](C)C(=O)N(C)C(C)C)c(=O)n2C[C@H](OCCC#N)c1cc(F)ccc1OC", "MEASUREMENT_TARGET": "Rhizoctonia solani (Rs)", "RESULT_UNIT": "µg/mL", "IC90": 0.08}
{"SMILES": "CCOC(=O)c1sc2c(c1C)c(=O)n([C@H](C)C(=O)N1CCCC1)c(=O)n2C[C@H](OCCC#N)c1cc(F)ccc1OC", "MEASUREMENT_TARGET": "Rhizoctonia solani (Rs)", "RESULT_UNIT": "µg/mL", "IC90": 0.08}
{"SMILES": "COCCO[C@@H](Cn1c(=O)n(C(C)(C)C(=O)N2CCCC2)c(=O)c2c(C)c(-n3nccn3)sc21)c1cc(F)ccc1C", "MEASUREMENT_TARGET": "Rhizoctonia solani (Rs)", "RESULT_UNIT": "µg/mL", "IC90": 10}
{"SMILES": "CCOC(=O)c1sc2c(c1C)c(=O)n(C(C)(C)C(N)=O)c(=O)n2C[C@H](OCCC#N)c1cc(F)ccc1OC", "MEASUREMENT_TARGET": "Rhizoctonia solani (Rs)", "RESULT_UNIT": "µg/mL", "IC90": 10}
{"SMILES": "COc1ccc(F)cc1[C@](C)(Cn1c(=O)n(C(C)(C)C(=O)NC(C)C)c(=O)c2c(C)c(-n3nccn3)sc21)OCCC#N", "MEASUREMENT_TARGET": "Rhizoctonia solani (Rs)", "RESULT_UNIT": "µg/mL", "IC90": 2}

----------
system: Collectotrichum graminicola (Cg); assay: In vitro pathogen growth inhibition assay, Cg; assay type: cell-based; conditions: 48 h, ≥90% growth inhibition; 48 hours; vs 2% DMSO control; read-out: Compound Concentration (ppm) sufficient for ≥90% inhibition of Cg

{"SMILES": "COc1ccc(F)cc1[C@H](Cn1c(=O)n(C(C)(C)C(N)=O)c(=O)c2c(C)c(-n3nccn3)sc21)OCC(C)C", "IC90, µg/mL": 2}
{"SMILES": "COc1ccc(F)cc1[C@H](Cn1c(=O)n(C(C)(C)C(=O)N2CCCC2)c(=O)c2c(C)c(-n3nccn3)sc21)OCCC#N", "IC90, µg/mL": 2}
{"SMILES": "CCNC(=O)[C@@H](C)n1c(=O)c2c(C)c(-n3cccn3)sc2n(C[C@H](OCCC#N)c2cc(F)ccc2OC)c1=O", "IC90, µg/mL": 2}
{"SMILES": "Cc1c(-n2nccn2)sc2c1c(=O)n(C(C)(C)C(=O)NC(C)C)c(=O)n2CCc1cc(F)ccc1OC1CCOCC1", "IC90, µg/mL": 10}
{"SMILES": "CCOC(=O)c1sc2c(c1C)c(=O)n(C(C)(C)C(=O)N1CCCC1)c(=O)n2C[C@H](O)c1cc(F)ccc1OC", "IC90, µg/mL": 10}
{"SMILES": "CCOC(=O)c1sc2c(c1C)c(=O)n([C@@H](C)C(=O)NC(C)C)c(=O)n2C[C@H](OCCC#N)c1cc(F)ccc1OC", "IC90, µg/mL": 10}

----------
System: Botrtyis cinerea (Bc)
Experiment: In vitro pathogen growth inhibition assay, Bc
Type: cell-based
Conditions: 48 h, ≥90% growth inhibition; 48 hours; vs 2% DMSO control; read-out: Compound Concentration (ppm) sufficient for ≥90% inhibition of Bc
Method: A growth inhibition assay was conducted to determine the ability of compounds to control the growth of fungal pathogens, such as Botrtyis cinerea (Bc), Collectotrichum graminicola (Cg), Diplodia maydis (Dm), Fusarium moniliforme (Fm), Fusarium virguliforme (Fv), Phytophthora capsici (Pc), Rhizoctonia solani (Rs), and Septoria tritici (St). […] Plate readings were repeated at both 24 and 48 hours. […]
Below, each of the compounds is paired with its reported IC90 value.

{"SMILES": "Cc1c(-n2nccn2)sc2c1c(=O)n(C(C)(C)C(=O)NC(C)C)c(=O)n2CCc1cc(F)ccc1OCCC#N", "IC90, µg/mL": 10}
{"SMILES": "COc1ccc(Cl)cc1[C@H](Cn1c(=O)n(C(C)(C)C(=O)NC(C)C)c(=O)c2c(C)c(-n3nccn3)sc21)OCC(C)(C)C#N", "IC90, µg/mL": 2}
{"SMILES": "COc1ccc(F)cc1[C@H](Cn1c(=O)n([C@@H](C)C(=O)NC(C)C)c(=O)c2c(C)c(-n3nccn3)sc21)OCCC#N", "IC90, µg/mL": 0.4}
{"SMILES": "CCNC(=O)[C@@H](C)n1c(=O)c2c(C)c(C(=O)OCC)sc2n(C[C@H](OCCC#N)c2cc(F)ccc2OC)c1=O", "IC90, µg/mL": 10}
{"SMILES": "COc1ccc(F)cc1[C@H](Cn1c(=O)n([C@@H](C)C(=O)NC(C)C)c(=O)c2c(C)c(-n3nccn3)sc21)OCC(C)(C)C#N", "IC90, µg/mL": 2}
{"SMILES": "COc1ccc(F)cc1[C@@](O)(CO)Cn1c(=O)n(C(C)(C)C(=O)NC(C)C)c(=O)c2c(C)c(-n3nccn3)sc21", "IC90, µg/mL": 0.4}
{"SMILES": "COc1ccc(F)cc1[C@H](Cn1c(=O)n(C(C)(C)C(=O)NC(C)C)c(=O)c2c(C)c(-n3nccn3)sc21)OC[C@H](C)C#N", "IC90, µg/mL": 0.4}
{"SMILES": "CCOC(=O)c1sc2c(c1C)c(=O)n(C(C)(C)C(=O)NC(C)C)c(=O)n2CCc1cc(F)ccc1OCCC#N", "IC90, µg/mL": 10}
{"SMILES": "CCNC(=O)[C@@H](C)n1c(=O)c2c(C)c(-n3nccn3)sc2n(C[C@H](OCCC#N)c2cc(F)ccc2OC)c1=O", "IC90, µg/mL": 2}
{"SMILES": "Cc1c(-n2nccn2)sc2c1c(=O)n(C(C)(C)C(=O)NC(C)C)c(=O)n2CCc1cc(F)ccc1CCCC#N", "IC90, µg/mL": 2}
{"SMILES": "COc1ccc(F)cc1[C@](C)(Cn1c(=O)n(C(C)(C)C(=O)NC(C)C)c(=O)c2c(C)c(-n3nccn3)sc21)OCCC#N", "IC90, µg/mL": 0.4}
{"SMILES": "COc1ccc(F)cc1[C@@H](O)Cn1c(=O)n(C(C)(C)C(=O)NC(C)C)c(=O)c2c(C)c(-n3nccn3)sc21", "IC90, µg/mL": 0.4}
{"SMILES": "COc1ccc(F)cc1[C@H](Cn1c(=O)n([C@@H](C)C(=O)N(C)C(C)C)c(=O)c2c(C)c(-n3nccn3)sc21)OCCC#N", "IC90, µg/mL": 2}
